Item-by-item account of EC50
# measuredOn: human orexin type 2 receptor (hOX2R) (Homo sapiens, UniProt O43614)
# Construct: expressed in transfected cells
# assayName: Orexin type 2 receptor agonist activity (FLIPR TETRA intracellular Ca2+ fluorescence)
# Type: cell-based
# assayConditions: CHO cells expressing hOX2R; area of Ca2+ fluorescence over 2 min; read-out: hOx2 pEC50 (converted)

Worked examples follow.
1) CC1(C#Cc2cccc(C[C@H]3[C@@H](NS(C)(=O)=O)CCN3C(=O)N3CCC3)c2F)CC1 : 0.001 to 0.01 µM
2) CCS(=O)(=O)NC1CCN(C(=O)C(C)C)C1Cc1cccc(C#CCOC)c1F (racemic) : > 0.1 µM
3) CCS(=O)(=O)N[C@H]1CCN(C(=O)N2CCC2)[C@H]1Cc1cccc(C#CC2CC2)c1F (single isomer, unassigned) : 0.001 to 0.01 µM

Exercise: Give the measured EC50 for CCS(=O)(=O)NC1CCN(C(=O)C(C)C)C1Cc1cccc(C#CC(C)(C)C)c1 (racemic)
Key: > 0.1 µM

Exercise: Please look at this compound and report its EC50: CCS(=O)(=O)NC1CCN(C(=O)C(C)C)C1Cc1cccc(C#CC2COC2)c1 (racemic)
Key: > 0.1 µM

Exercise: Read the entry CCS(=O)(=O)NC1CCN(C(=O)C(C)C)C1Cc1cccc(C#CC2CC2)c1 (racemic) and write its reported EC50.
Key: > 0.1 µM

====

# measuredOn: human orexin type 2 receptor (hOX2R) (Homo sapiens, UniProt O43614)
# Construct: expressed in transfected cells
# Sequence (O43614 1-444): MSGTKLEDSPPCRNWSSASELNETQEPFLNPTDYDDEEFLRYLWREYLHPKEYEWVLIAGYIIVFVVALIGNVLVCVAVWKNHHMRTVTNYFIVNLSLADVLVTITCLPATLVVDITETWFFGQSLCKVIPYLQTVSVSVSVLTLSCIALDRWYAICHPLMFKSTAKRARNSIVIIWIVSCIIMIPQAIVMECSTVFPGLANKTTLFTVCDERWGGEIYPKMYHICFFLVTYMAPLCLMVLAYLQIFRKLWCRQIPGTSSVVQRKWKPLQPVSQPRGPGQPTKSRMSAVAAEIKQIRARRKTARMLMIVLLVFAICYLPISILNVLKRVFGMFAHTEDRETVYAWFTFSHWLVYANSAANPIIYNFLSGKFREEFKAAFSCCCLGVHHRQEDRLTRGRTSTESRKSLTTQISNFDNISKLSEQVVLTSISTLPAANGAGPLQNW
# assayName: Orexin type 2 receptor agonist activity (FLIPR TETRA intracellular Ca2+ fluorescence)
# Format: cell-based
# assayConditions: CHO cells expressing hOX2R; area of Ca2+ fluorescence over 2 min; read-out: hOx2 pEC50 (converted)
measurementLabel: EC50

Example entries begin here.
1. CCS(=O)(=O)NC1CCN(C(=O)C(C)(C)O)C1Cc1cccc(C#Cc2ccccc2)c1 (racemic) : > 100 nM
2. CCS(=O)(=O)NC1CCN(C(=O)C(C)C)C1Cc1cccc(C#CC2(C)COC2)c1 (racemic) : > 100 nM
3. CCS(=O)(=O)NC1CCN(C(=O)N2CCC2)C1Cc1cccc(C#CC2CC2)n1 (racemic) : > 100 nM
4. CCS(=O)(=O)NC1CCN(C(=O)C(C)C)C1Cc1cccc(C#CC2CCCC2)c1 (racemic) : > 100 nM
5. CCS(=O)(=O)N[C@@H]1CCN(C(=O)N2CCC2)[C@@H]1Cc1cccc(C#CC2CC2)c1F (single isomer, unassigned) : > 100 nM
6. CC1(C#Cc2cccc(C[C@@H]3[C@H](NS(C)(=O)=O)CCCN3C(=O)[C@H]3CCO3)c2F)CC1 (single isomer, unassigned) : > 100 nM

We now examine a further compound.
Exercise: Look up and state reported EC50 for CCS(=O)(=O)NC1CCN(C(=O)C(C)(C)O)C1Cc1cccc(C#CC2CC2)c1 (racemic)
Key: > 100 nM
